# Test system: Hepatotoxicity
# METHOD SUMMARY: FDA HLAED, liver enzyme composite activity
# CONDITION CONTEXT: human
OBSERVED PROPERTY: Composite Activity - Score

COMPOUND	Composite Activity - Score
COC(=O)C1=C(C)NC(C)=C(C(=O)OCC(C)C)C1c1ccccc1[N+](=O)[O-] (stereo not given)	Inactive
Clc1ccc2c(c1)C(c1ccccc1)=NCc1nncn1-2	Inactive
Clc1ccc(COC(Cn2ccnc2)c2ccc(Cl)cc2Cl)cc1 (stereo not given)	Inactive
CC1(C)S[C@@H]2[C@H](NC(=O)[C@H](N)c3ccc(O)cc3)C(=O)N2[C@H]1C(=O)O	Inactive

Consider the record given below.
Prompt: I am curious: what Composite Activity - Score value has been reported for CN1CCN2c3ncccc3Cc3ccccc3C2C1 (stereo not given) ?
Completion: Inactive

Origin of the recorded values: ChEMBL document CHEMBL1697781
